src = ChEMBL document CHEMBL1138463

Reported pKi values are given for each entry in this list.
# testedOn: Dihydroorotate dehydrogenase (quinone), mitochondrial (Homo sapiens)
# Sequence (Q02127 whole entry): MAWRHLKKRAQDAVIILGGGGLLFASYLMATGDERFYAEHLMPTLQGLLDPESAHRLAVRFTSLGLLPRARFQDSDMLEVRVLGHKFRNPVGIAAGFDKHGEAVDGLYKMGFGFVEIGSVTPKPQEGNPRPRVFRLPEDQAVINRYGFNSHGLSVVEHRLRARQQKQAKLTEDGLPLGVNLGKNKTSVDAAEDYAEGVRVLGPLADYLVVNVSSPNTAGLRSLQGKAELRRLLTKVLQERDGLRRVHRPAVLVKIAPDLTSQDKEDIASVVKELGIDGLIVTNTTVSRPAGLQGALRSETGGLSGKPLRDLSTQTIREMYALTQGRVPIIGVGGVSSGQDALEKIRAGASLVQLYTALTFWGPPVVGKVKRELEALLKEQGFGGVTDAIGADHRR
Remember the convention: pKi equals -log10 of concentration in molar.

Solved entries:
smilesStr	pKi
C/C(O)=C(\C#N)C(=O)Nc1ccc(-c2ccccc2)cc1	7.96
C/C(O)=C(\C#N)C(=O)Nc1ccc(-c2cccc(Cl)c2Cl)cc1Cl	7.40
N#C/C(C(=O)Nc1ccc(-c2ccccc2)cc1)=C(/O)C1CC1	8.15

Data request: Field request: pKi | item: C/C(O)=C(\C#N)C(=O)Nc1ccc(-c2cccc(Cl)c2)cc1Cl
Data returned: 6.72

Data request: How about this compound: C/C(O)=C(\C#N)C(=O)Nc1ccc(-c2cccc(Cl)c2Cl)cc1
Data returned: 7.60

Data request: And the next one, C/C(O)=C(\C#N)C(=O)Nc1ccc(-c2ccccc2Cl)c(Cl)c1 ?
Data returned: 8.57

Data request: Also check C/C(O)=C(\C#N)C(=O)Nc1ccc(-c2ccccc2)cc1Cl
Data returned: 7.41
